Could you please report measured T½ Max (seconds), coagulation of human plasma for the items listed next?
- TESTED TARGET: Innovin, lyophilized recombinant human tissue factor combined with phospholipids (human, UniProt P13726 33-295, limits assumed); further: test concentration or dose not given here
- PROTOCOL TEXT: cell-based or functional assay
Give bare numbers, in s.

Below, 2 binders whose answers are already recorded.
Exercise: Quick one: T½ Max (seconds), coagulation of human plasma for M1596 (antibody, V domains shown, complete MAb; FR4 is its own entry; also called H185/L3) VH: EVQLVQSGAEVKKPGESLRISCKGSGYTFTPYWIEWVRQMPGKGLEWMGDILPGSGHTTYSPSFQGHVTISADKSISTAYLQWSSLKASDTAMYYCARSGYYGNSGFAYWGQGTLVTVSS VL: DIVMTQTPLSLPVTPGEPASISCKSSQSLLSSGNQKNYLTWYLQKPGQSPQLLIYWASTRESGVPDRFSGSGSGTDFTLKISRVEAEDVGVYYCQNDYTYPLTFGQGTKLEIK ?
Key: 163

Exercise: Quick one: T½ Max (seconds), coagulation of human plasma for M52 (antibody, V domains shown, complete MAb; FR4 is its own entry; also called H21/L3) VH: EVQLVQSGAEVKKPGATVKISCKVSGYTFITYWIEWVQQAPGKGLEWMGDILPGSGSTNYNENFKGRVTITADTSTDTAYMELSSLRSEDTAVYYCATSGYYGNSGFAYWGQGTLVTVSS VL: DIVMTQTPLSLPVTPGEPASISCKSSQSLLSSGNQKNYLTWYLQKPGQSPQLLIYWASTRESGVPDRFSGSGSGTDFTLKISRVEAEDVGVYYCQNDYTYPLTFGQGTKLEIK ?
Key: 201

Next:
Exercise: Quick one: T½ Max (seconds), coagulation of human plasma for M1588 (antibody, V domains shown, complete MAb; FR4 is its own entry; also called H179/L3) VH: EVQLVQSGAEVKKPGESLRISCKGSGYTFGPFWIEWVRQMPGKGLEWMGDILPGSGYTNYSPSFQGHVTISADKSISTAYLQWSSLKASDTAMYYCARSGYYGNSGFAYWGQGTLVTVSS VL: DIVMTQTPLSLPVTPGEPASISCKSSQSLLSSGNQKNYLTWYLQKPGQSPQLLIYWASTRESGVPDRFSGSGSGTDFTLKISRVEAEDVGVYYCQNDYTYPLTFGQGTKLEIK ?
Key: 207
